- experimental.target: Multidrug resistance-associated protein 1 (Homo sapiens, UniProt P33527)
- Sequence (P33527 whole entry): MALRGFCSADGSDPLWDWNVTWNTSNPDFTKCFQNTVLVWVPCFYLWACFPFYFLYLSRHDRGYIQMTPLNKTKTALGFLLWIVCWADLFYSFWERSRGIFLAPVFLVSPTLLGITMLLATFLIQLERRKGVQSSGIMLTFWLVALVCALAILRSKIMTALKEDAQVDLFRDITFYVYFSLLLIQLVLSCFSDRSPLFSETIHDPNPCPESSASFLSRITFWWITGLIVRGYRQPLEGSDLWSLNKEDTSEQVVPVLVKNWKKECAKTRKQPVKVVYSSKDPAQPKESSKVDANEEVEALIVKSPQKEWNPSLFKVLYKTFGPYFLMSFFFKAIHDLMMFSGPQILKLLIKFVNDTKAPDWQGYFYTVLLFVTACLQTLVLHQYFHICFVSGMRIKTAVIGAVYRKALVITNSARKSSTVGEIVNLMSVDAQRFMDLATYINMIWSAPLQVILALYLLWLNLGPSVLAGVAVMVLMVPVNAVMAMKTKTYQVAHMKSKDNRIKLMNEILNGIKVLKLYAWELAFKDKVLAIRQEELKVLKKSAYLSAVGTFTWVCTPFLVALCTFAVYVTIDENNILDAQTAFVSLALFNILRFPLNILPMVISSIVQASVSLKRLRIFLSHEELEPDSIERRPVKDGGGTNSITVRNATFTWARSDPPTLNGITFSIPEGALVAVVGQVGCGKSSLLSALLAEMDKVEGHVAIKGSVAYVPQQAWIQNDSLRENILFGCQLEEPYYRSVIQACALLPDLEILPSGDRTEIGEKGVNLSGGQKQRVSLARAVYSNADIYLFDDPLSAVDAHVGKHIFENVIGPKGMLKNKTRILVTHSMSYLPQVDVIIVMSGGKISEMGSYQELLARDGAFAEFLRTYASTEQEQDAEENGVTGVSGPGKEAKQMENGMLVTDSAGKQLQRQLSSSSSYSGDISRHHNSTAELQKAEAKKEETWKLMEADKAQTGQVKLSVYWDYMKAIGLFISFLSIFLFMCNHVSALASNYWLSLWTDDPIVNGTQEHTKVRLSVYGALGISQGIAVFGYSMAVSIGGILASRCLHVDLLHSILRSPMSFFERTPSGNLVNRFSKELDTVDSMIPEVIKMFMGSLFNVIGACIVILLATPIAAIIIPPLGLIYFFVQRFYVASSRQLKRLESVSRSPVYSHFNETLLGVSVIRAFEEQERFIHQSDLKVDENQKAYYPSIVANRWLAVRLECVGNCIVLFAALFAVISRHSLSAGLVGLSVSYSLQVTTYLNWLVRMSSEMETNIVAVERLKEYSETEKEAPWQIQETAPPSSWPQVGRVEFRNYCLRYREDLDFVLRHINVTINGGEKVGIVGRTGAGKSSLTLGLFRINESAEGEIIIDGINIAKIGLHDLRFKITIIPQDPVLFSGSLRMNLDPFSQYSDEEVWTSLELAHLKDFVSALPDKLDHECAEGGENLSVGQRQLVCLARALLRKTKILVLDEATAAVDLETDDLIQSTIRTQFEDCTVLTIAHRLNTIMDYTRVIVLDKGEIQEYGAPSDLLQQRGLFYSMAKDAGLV
- experiment: Inhibition of MRP1 in human 2008/MRP1 cells assessed as potentiation of doxorubicin-induced cytotoxicity by measuring cell survival at 2 uM after 5 days by MTS assay relative to control
- Type: cell-based
- experimental.setup: 120 h
reported.property: Survival (%)

smiles.input: O=c1cc(-c2ccccc2)oc2cc(OCCOCCn3cc(-c4ccc(-c5cn(CCOCCOc6ccc7oc(-c8ccccc8)cc(=O)c7c6)nn5)cc4)nn3)ccc12
reported.property: Survival
value.measured: 79

smiles.input: Cc1ccc2oc(-c3ccc(OCCCCc4cn(CCOCCOCCOc5ccc(-c6cc(=O)c7cc(C)ccc7o6)cc5)nn4)cc3)cc(=O)c2c1
reported.property: Survival
value.measured: 38

smiles.input: O=c1cc(-c2ccc(OCCCc3cn(CCOCCOc4cccc(-c5oc6ccccc6c(=O)c5OCc5ccccc5)c4)nn3)cc2)oc2ccccc12
reported.property: Survival
value.measured: 54

smiles.input: Cc1ccc(C(=O)/C=C/c2ccc(OCCCCc3cn(CCOCCOc4ccc5c(=O)cc(-c6ccccc6)oc5c4)nn3)cc2)c(O)c1
reported.property: Survival
value.measured: 62

smiles.input: O=c1cc(-c2ccccc2)oc2cc(OCCOCCn3cc(CN(Cc4ccccc4)Cc4cn(CCOCCOc5ccc6oc(-c7ccccc7)cc(=O)c6c5)nn4)nn3)ccc12
reported.property: Survival
value.measured: 76

smiles.input: CCc1ccc(O)c(C(=O)/C=C/c2ccc(OCCCCc3cn(CCOCCOc4ccc(-c5oc6ccccc6c(=O)c5OCc5ccccc5)cc4)nn3)cc2)c1
reported.property: Survival
value.measured: 69
